# experimental system: recombinant human mPGES-1 (Homo sapiens (Human))
# procedure summary: mPGES-1 enzyme assay (HTRF detection of PGE2)
# Assay type: biochemical
# reported conditions: recombinant human mPGES-1 microsomes, PGH2 2 μM, 60 seconds; read-out: mPGES-1 inhibitory effect IC50 in the enzyme assay
quantity name: pIC50
// pIC50 is dimensionless: -log10 of concentration (M)

- molecule: "Cn1c(Nc2c(Cl)ccc(CNC(=O)C(C)(C)C)c2Cl)nc2cc(C(=O)N[C@H]3CC[C@H](C(F)(F)F)CC3)c(N3CC4CCC(C3)O4)cc21"
  pIC50: 8.70

Data request: Look at this molecule and give its reported pIC50. Cn1c(Nc2c(Cl)ccc(CNC(=O)C(C)(C)C)c2Cl)nc2cc(C(=O)N[C@H]3CC[C@H](C(F)(F)F)CC3)c(N3CC4CC4C3)cc21 (stereo partly drawn)
Data returned: 8.30

Data request: Also Cn1c(Nc2c(Cl)ccc(CNC(=O)C(C)(C)C)c2Cl)nc2cc(C(=O)NCCC(F)(F)F)c(N3CCC(C(F)(F)F)CC3)cc21 , if possible.
Data returned: 8.70

Data request: Param item: Cn1c(Nc2c(Cl)ccc(CNC(=O)C(C)(C)C)c2Cl)nc2cc(C(=O)N[C@H]3CC[C@H](C(F)(F)F)CC3)c(N3CC4CCC4C3)cc21 (stereo partly drawn)
Data returned: 8.52

Data request: Now the same for Cn1c(Nc2c(Cl)ccc(CNC(=O)C(C)(C)C)c2Cl)nc2cc(C(=O)N[C@H]3CC[C@@H](C(F)(F)F)CC3)c(N3CC4CC4C3)cc21 (stereo partly drawn)
Data returned: 8.52

Data request: // query: Cn1c(Nc2c(Cl)ccc(CNC(=O)C(C)(C)C)c2Cl)nc2cc(C(=O)N[C@H]3CC[C@H](C(F)(F)F)CC3)c(N3CCC3)cc21
Data returned: 7.80

###

# experimental system: mPGES-1 in A549 cells (Homo sapiens (Human))
# Sequence (O14684 whole entry): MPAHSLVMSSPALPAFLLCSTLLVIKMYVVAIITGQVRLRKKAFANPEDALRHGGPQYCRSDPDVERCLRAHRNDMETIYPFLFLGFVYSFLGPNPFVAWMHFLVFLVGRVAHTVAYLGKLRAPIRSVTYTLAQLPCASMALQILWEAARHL
# procedure summary: A549 cell-based assay (PGE2 formation, 50% human serum)
# reported conditions: IL-1β 5 ng/ml, 10 nM arachidonic acid, 20-24 h, read-out: mPGES-1 inhibitory effect IC50 in the cell assay
Below, each entry is listed alongside its reported IC50.

- molecule: "Cn1c(Nc2c(Cl)ccc(CNC(=O)C(C)(C)C)c2F)nc2cc(C(=O)N[C@H]3CC[C@H](C(F)(F)F)CC3)c(N3CCC(C(F)(F)F)C3)cc21 (stereo partly drawn)"
  IC50: "4 nM"
- molecule: "Cn1c(Nc2c(Cl)ccc(CNC(=O)[C@](C)(O)C(F)(F)F)c2Cl)nc2cc(C(=O)Nc3ccc(F)c(Cl)c3)c(N3CC[C@@H](F)C3)cc21"
  IC50: "6 nM"
- molecule: "Cn1c(Nc2c(Cl)ccc(CNC(=O)c3c(O)cccc3F)c2Cl)nc2cc(C(=O)NCCC(F)(F)F)c(N3CCC(C(F)(F)F)CC3)cc21"
  IC50: "> 100 nM"
- molecule: "Cn1c(Nc2c(Cl)ccc(CNC(=O)C(C)(C)C)c2Cl)nc2cc(C(=O)N[C@H]3CC[C@H](C(F)(F)F)CC3)c(N3C[C@@H]4C[C@H]3CO4)cc21"
  IC50: "5 nM"
- molecule: "COc1cncc(C(=O)NCc2ccc(Cl)c(Nc3nc4cc(C(=O)N[C@H]5CC[C@H](C(F)(F)F)CC5)c(N5CC6CC6C5)cc4n3C)c2Cl)c1 (stereo partly drawn)"
  IC50: "> 100 nM"
- molecule: "CC(C)(C)C(=O)NCc1ccc(Cl)c(Nc2nc3cc(C(=O)N[C@H]4CC[C@H](C(F)(F)F)CC4)c(N4CCOCC4)cc3n2CCC(N)=O)c1Cl"
  IC50: "110 nM"
- molecule: "COC1CN(c2cc3c(cc2C(=O)N[C@H]2CC[C@H](C(F)(F)F)CC2)nc(Nc2c(Cl)ccc(CNC(=O)C(C)(C)C)c2Cl)n3C)C1"
  IC50: "5 nM"
- molecule: "Cn1c(Nc2c(Cl)ccc(CNC(=O)C(C)(C)C)c2Cl)nc2cc(C(=O)NCC(F)(F)C(F)(F)F)c(N3CCC(F)(F)CC3)cc21"
  IC50: "2 nM"

Data request: Provide value of IC50 for this record tested with mPGES-1 in A549 cells (Homo sapiens (Human)): Cn1c(Nc2c(Cl)ccc(CNC(=O)c3nccs3)c2Cl)nc2cc(C(=O)NCCC(F)(F)F)c(N3CCC(C(F)(F)F)CC3)cc21
Data returned: 7 nM

Data request: Likewise for Cn1c(Nc2c(Cl)ccc(CNC(=O)C(C)(C)C)c2Cl)nc2cc(C(=O)N[C@H]3CC[C@H](C(F)(F)F)CC3)c(N3CCC(C)(O)C3)cc21 (stereo partly drawn) ?
Data returned: 1.4 nM

Data request: For Cn1c(Nc2c(Cl)ccc(CNC(=O)C(C)(C)C)c2Cl)nc2cc(C(=O)NC(Cc3ccccc3)C(F)(F)F)c(N3CCC(F)(F)C3)cc21 (stereo not drawn) then?
Data returned: 8 nM

Data request: Would you kindly repeat that for Cn1nc(C(=O)NCc2ccc(Cl)c(Nc3nc4cc(C(=O)NCCC(F)(F)F)c(N5CCC(C(F)(F)F)CC5)cc4n3C)c2Cl)cc1N ?
Data returned: > 100 nM
